- Tested on: preferentially upregulated genes in LV, SP, LN
- Procedure details: Z-score-based differential gene expression analysis (adjuvant group- or adjuvant-associated genes, 40 module mapping, TargetMine annotation)
- Format: in vivo, C57BL/6 mice
- Run conditions: ID, LV, sample x1
Assay metric: Shisa5 1437503_a_at (Group G1, Modules 20)
The answer should be written as a number, with no unit following it.

Here's what some known entries look like.
Compound	Measurement
Nc1nc2c(ncn2[C@@H]2O[C@@H]3COP(=O)(O)O[C@H]4[C@@H](O)[C@H](n5cnc6c(=O)[nH]c(N)nc65)O[C@@H]4COP(=O)(O)O[C@H]3[C@H]2O)c(=O)[nH]1 [cdiGMP, Cyclic diguanylate monophosphate]	1.05
Cc1ccc2c(=O)c3cccc(CC(=O)O)c3oc2c1C	2.12

Okay, now this compound:
Task: Give a short answer stating reported Shisa5 1437503_a_at (Group G1, Modules 20) for "CCOCc1nc2c(N)nc3ccccc3c2n1CC(C)(C)O" .
Output: 3.09

Source: patent US20230021483A1
